B1: POU domain, class 6, transcription factor 2, residues 609 to 663; numbered along this chain, P78424 (parent)
chain: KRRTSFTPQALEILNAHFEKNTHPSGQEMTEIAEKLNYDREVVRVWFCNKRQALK

Variants of: B1
Assay: abundance fitness (aPCA) (normalised: wild type 0, dead -1); higher = more abundant; growth selection in yeast, the domain comes from the species named
Conditions: Homo sapiens
EXPERIMENTAL_ENDPOINT: abundance fitness

G26T :: 0.03
V43Y :: -0.908
P24D :: -0.792
T22Y :: -0.201
I13Q :: -0.132
R40V :: -0.013

In: For the variant Y38A , give its reported abundance fitness.
Out: 0.02

In: Answer with the recorded abundance fitness of C48M only.
Out: 0.18
